All figures here come from PubChem BioAssay AID1159580.

For each record, write down the corresponding normalized growth.
Assay: chemical genetic growth profiling, strain panel (AID 1159580);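 note: tested at 20 µM; growth read once vehicle control cultures reached saturation at 30 °C; 1 = growth at the plate median or of vehicle wells; lower values mean less growth of the strain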
Settings: S. cerevisiae deletion strains, growth OD, locus YMR263W, strain SAP30, active compounds read low
Out of some 5,500 compounds screened, about 2,000 (36%) were called active. Roughly 18% stayed inconclusive and do not appear here. This is one part of the list.
Answer using only a numeral; do not append any unit.

Ask | Note down normalized growth recorded for CO/N=C(/C(=O)N[C@@H]1C(=O)N2C(C(=O)O)=C(COC(C)=O)CS[C@H]12)c1csc(N)n1
Reply | 0.965

Ask | Note down normalized growth recorded for CO/N=C(\C(=O)N[C@@H]1C(=O)N2C(C(=O)O)=C(CSc3nc(=O)c(O)nn3C)CS[C@H]12)c1csc(N)n1
Reply | 1.01

Ask | Note down normalized growth recorded for CCCC(=O)O[C@]1(C(=O)CO)CCC2[C@@H]3CCC4=CC(=O)CC[C@]4(C)C3[C@@H](O)C[C@@]21C (some centres undefined)
Reply | 1.01

Ask | Note down normalized growth recorded for CN1c2ccccc2C(=O)NC1c1ccc([N+](=O)[O-])s1 (centres undefined)
Reply | 1
